B1: IQUB (parent)
chain: KIREKEEWIKLDYHRRHNPKTNED

Variants of: B1
Experiment: protein stability index of a GFP-peptide fusion (GPS, HEK-293T) (PSI 1-6); higher = more stable;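 note: lentivirally expressed fusions sorted by FACS into six bins by GFP to DsRed ratio, PSI derived from sequencing read proportions per bin multiplied by bin number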
Conditions: c terminus: a fixed tail appended
quantity: protein stability index
Give bare numbers.

The examples below pair each entry with its known result.
[[record]]
variant_string = "K20Y"
val = 4.03

[[record]]
variant_string = "E7K"
val = 4.03

[[record]]
variant_string = "H14F"
val = 4.34

[[record]]
variant_string = "I2D"
val = 5.17

[[record]]
variant_string = "D12I"
val = 3.28

[[record]]
variant_string = "D24W"
val = 3.02

[[record]]
variant_string = "R15C"
val = 3.89

[[record]]
variant_string = "E6K"
val = 3.98

[[record]]
variant_string = "D24V"
val = 3.21

[[record]]
variant_string = "R16F"
val = 3.7


Respectfully, I request protein stability index for each entry included below.
1. E4I
2. I2M

[4, 4.72]

Respectfully, I request protein stability index for each entry included below.
1. D12L
2. K10C
3. Y13F
4. K20T
5. K10Q

3.79
4.15
4.51
4.64
4.74

Respectfully, I request protein stability index for each entry included below.
1. K1A
2. Y13Q
3. H17F
4. E4V
5. E7F
6. I2F
7. W8G

[4.79, 5.04, 4.41, 3.32, 3.34, 4.19, 5.54]

Respectfully, I request protein stability index for each entry included below.
1. T21Y
2. R16D
3. R16E
4. Y13T
5. H17D
6. D24I
7. N22Q

[4.52, 3.61, 5.2, 4.49, 5.08, 3.83, 4.66]

Respectfully, I request protein stability index for each entry included below.
1. R16M
2. L11F

1: 4.63; 2: 4.33

Respectfully, I request protein stability index for each entry included below.
1. N22G
2. E4Y
3. P19S
4. K1N
5. K5Q
6. N22L

1. 4.79
2. 4.03
3. 4.99
4. 5.44
5. 4.93
6. 4.2

Respectfully, I request protein stability index for each entry included below.
1. K5M
2. E6Q
3. T21G
4. R3G

1. 3.04
2. 4.47
3. 5.12
4. 5.16

Respectfully, I request protein stability index for each entry included below.
1. N22T
2. E23P
3. R15T
4. R3V
5. K20H
6. I9Q
7. E7M
8. R16I

1. 4.6
2. 4.28
3. 4.76
4. 4.52
5. 4.64
6. 5.24
7. 3.27
8. 4.38
